- SYSTEM_NAME: human follicle-stimulating hormone receptor (FSHR) (Homo sapiens)
- Construct: host or cells: CHO-K1
- Sequence (P23945 18-695): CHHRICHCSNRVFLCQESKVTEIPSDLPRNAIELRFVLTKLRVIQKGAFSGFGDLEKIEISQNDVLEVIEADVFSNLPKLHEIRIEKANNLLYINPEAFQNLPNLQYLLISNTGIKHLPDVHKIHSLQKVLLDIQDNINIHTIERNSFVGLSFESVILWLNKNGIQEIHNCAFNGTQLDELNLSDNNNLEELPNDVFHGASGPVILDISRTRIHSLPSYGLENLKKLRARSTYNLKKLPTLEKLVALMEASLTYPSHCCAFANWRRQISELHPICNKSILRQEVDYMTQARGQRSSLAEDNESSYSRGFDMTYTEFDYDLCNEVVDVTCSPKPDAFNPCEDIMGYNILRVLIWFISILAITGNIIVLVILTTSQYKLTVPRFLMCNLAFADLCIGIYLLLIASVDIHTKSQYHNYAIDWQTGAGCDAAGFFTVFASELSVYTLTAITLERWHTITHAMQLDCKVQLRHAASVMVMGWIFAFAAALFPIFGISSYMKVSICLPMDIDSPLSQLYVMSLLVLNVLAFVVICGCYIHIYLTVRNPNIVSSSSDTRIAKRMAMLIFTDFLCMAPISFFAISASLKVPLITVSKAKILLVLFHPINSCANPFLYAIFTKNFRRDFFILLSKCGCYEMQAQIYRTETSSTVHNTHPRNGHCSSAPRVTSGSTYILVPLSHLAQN
- PROTOCOL_SUMMARY: Measurement of agonist cAMP production by activation of human FSHR
- Assay type: cell-based
- MEASUREMENT_CONDITIONS: CHO-K1 human FSHR cells, 30 minutes at 37° C., HTRF cAMP kit; read-out: hFSHR Agonist cAMP EC50
Starred links: 1 amine or outer side, 2 acyl side, 3 side chain; linkers in the order of their positions; H or OH if unused. Non-standard residues stand in square brackets, D forms with d. Residues, ends and D or L forms follow the SMILES beside them. Groups on a side chain read outwards from the residue. *: point of attachment. X1 = COc1cc2c(cc1-c1cccc(N*)c1)-c1c(c(C(=O)N3CCOCC3(C)C)nn1-c1cc(Cl)cc(Cl)c1)CO2; DOTA = O=C(O)CN1CCN(CC(=O)O)CCN(CC(=O)*)CCN(CC(=O)O)CC1; Suc = O=C(CCC(=O)[*:2])[*:1]
OBSERVED_PROPERTY: EC50

{"columns": ["COMPOUND", "ASSAY_RESULT"],
 "data": [
  ["COc1cc2c(cc1-c1cccc(NC(=O)CCC(=O)NCCCC[C@@H](NC(=O)[C@@H](CO)NC(=O)[C@@H](CC(N)=O)NC(=O)[C@@H](C)NC(=O)CN3CCN(CC(=O)O)CCN(CC(=O)O)CCN(CC(=O)O)CC3)C(=O)N[C@H](CC(N)=O)C(=O)N[C@H](CO)C(=O)N[C@H](C)C(N)=O)c1)-c1c(c(C(=O)N3CCOCC3(C)C)nn1-c1cc(Cl)cc(Cl)c1)CO2 [Compound 97] ({DOTA}-[dA][dN][dS][dK]([Suc-X1])[dN][dS][dA]-NH2)", "0.01 to 0.1 µM"],
  ["COc1cc2c(cc1-c1cncc(NC(=O)CN(C)C(=O)CN(C)C(=O)CN(C)C(=O)CN(C)C(=O)CN(C)C(=O)CCNC(=O)CN3CCN(CC(=O)O)CCN(CC(=O)O)CCN(CC(=O)O)CC3)c1)-c1c(c(C(=O)N3CCOCC3(C)C)nn1-c1cc(F)cc(F)c1)CO2", "> 0.1 µM"]
]}

-- ask Please report EC50 for the following compound: COc1cc2c(cc1-c1cccc(NC(=O)CCC(=O)N[C@H](C)C(=O)N[C@H](CCC(=O)O)C(=O)N[C@H](CCC(=O)O)C(=O)N[C@H](CCC(=O)O)C(=O)N[C@H](CCC(=O)O)C(=O)N[C@H](CCCCNC(=O)CN3CCN(CC(=O)O)CCN(CC(=O)O)CCN(CC(=O)O)CC3)C(=O)N[C@H](C)C(N)=O)c1)-c1c(c(C(=O)N3CCOCC3(C)C)nn1-c1cc(Cl)cc(Cl)c1)CO2 [Compound 92] ({X1-Suc}-[dA][dE][dE][dE][dE][dK](DOTA)[dA]-NH2)
-- reply 0.01 to 0.1 µM

-- ask In one line, give reported EC50 of the entry COc1cc2c(cc1-c1cncc(NC(=O)CCCNC(=O)[C@H](N)CCCCNC(=O)CN3CCN(CC(=O)O)CCN(CC(=O)O)CCN(CC(=O)O)CC3)c1)-c1c(c(C(=O)N3CCOCC3(C)C)nn1-c1cc(F)cc(F)c1)CO2 .
-- reply 0.01 to 0.1 µM
